Hey, just so you know, these numbers are from BindingDB's records for doi:10.1016/j.bmc.2012.01.022.

Target: D(2) dopamine receptor (Homo sapiens, UniProt P14416)
Sequence (P14416 whole entry): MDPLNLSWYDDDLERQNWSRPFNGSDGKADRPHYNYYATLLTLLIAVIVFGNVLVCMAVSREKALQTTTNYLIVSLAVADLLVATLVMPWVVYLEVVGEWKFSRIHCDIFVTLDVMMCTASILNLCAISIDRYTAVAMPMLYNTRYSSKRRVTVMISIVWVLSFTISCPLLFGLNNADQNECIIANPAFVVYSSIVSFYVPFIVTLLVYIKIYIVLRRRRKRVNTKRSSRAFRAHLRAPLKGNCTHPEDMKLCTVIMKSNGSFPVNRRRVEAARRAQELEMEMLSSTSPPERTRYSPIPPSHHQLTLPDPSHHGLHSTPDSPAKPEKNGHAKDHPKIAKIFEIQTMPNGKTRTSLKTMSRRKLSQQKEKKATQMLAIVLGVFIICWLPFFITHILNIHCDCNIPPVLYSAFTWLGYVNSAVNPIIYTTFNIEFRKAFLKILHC
Experiment: Displacement of [3H]-N-methylspiperone from dopamine D2 receptor expressed in human MES-23.5 cells
Measured Endpoint: pKi
Please note pKi is a logarithmic value: minus log10 of concentration in mol/L. Answer with that number alone.

Case O=C(CCCCN1[C@@H]2CC[C@H]1CC(O)(c1ccc(Cl)cc1)C2)c1nc2ccccc2s1 (stereo partly specified) , D(2) dopamine receptor (Homo sapiens, UniProt P14416), pKi recorded as 6.74

----------
Molecular target: 5-hydroxytryptamine receptor 2A (Homo sapiens, UniProt P28223)
Sequence (P28223 whole entry): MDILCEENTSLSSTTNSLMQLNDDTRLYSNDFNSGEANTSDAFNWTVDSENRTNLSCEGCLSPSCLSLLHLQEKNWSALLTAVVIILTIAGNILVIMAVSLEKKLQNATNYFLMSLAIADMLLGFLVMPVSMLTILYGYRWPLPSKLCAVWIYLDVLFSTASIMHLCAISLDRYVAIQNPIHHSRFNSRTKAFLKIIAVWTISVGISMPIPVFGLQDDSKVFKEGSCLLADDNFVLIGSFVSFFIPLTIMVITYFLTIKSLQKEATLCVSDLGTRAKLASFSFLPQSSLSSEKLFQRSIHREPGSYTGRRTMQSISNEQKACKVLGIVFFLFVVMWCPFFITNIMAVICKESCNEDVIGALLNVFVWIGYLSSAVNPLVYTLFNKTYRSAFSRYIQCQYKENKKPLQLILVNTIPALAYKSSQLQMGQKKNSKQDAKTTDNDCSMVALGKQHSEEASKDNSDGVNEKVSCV
Measured Endpoint: Ki

Record OC1(c2ccc(Cl)cc2)C[C@H]2CC[C@@H](C1)N2CCCCc1nc2ccccc2s1 (stereo partly specified) , field Ki: > 10 µM

----------
Target: 5-hydroxytryptamine receptor 2C (Homo sapiens)
Sequence (P28335 whole entry): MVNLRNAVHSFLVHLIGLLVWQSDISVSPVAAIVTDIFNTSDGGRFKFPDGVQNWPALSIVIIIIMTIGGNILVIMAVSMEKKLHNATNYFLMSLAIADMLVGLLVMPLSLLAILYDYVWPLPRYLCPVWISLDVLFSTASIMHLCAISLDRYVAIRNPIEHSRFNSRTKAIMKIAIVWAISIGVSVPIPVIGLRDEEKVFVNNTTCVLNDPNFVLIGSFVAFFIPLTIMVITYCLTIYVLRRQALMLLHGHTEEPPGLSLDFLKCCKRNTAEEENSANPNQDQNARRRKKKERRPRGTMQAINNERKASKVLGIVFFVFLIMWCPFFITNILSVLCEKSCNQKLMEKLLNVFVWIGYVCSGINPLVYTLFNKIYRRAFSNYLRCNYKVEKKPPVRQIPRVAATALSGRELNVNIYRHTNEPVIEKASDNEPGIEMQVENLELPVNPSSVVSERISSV
Measured Endpoint: Ki (µM)
Note: unit µM is implicit; provide only the numeric part.

Case OC1(c2ccc(Cl)cc2)C[C@H]2CC[C@@H](C1)N2CCCCc1nc2ccccc2s1 (stereo partly specified) , 5-hydroxytryptamine receptor 2C (Homo sapiens), Ki recorded as 4.62
